Molecular target: IRAK1 (Homo sapiens, UniProt P51617)
Sequence (P51617 whole entry): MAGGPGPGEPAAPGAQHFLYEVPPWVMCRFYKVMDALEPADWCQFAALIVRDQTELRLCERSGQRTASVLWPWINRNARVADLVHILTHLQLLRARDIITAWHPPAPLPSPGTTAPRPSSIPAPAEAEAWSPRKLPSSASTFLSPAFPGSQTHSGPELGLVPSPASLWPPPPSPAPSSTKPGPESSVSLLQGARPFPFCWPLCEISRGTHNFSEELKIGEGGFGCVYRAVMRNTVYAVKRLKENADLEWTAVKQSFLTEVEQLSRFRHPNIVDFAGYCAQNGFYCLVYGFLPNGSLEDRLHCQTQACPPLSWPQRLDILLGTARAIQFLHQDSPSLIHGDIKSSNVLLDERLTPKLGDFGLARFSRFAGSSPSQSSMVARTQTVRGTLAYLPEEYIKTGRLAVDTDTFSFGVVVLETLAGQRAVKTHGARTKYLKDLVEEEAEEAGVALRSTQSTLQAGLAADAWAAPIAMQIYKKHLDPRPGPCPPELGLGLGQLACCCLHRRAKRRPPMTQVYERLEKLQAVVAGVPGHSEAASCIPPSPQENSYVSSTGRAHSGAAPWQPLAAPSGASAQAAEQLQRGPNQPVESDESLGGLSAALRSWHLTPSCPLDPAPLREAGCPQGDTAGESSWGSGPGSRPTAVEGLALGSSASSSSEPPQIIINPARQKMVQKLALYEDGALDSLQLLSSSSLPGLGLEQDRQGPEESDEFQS
valueType: log10 IC50 (log10 of the value in µM)
Parameter value (number): base-10 log of IC50 in µM.

Below are worked cases with known answers.
>  <compound>
F[C@H]1CNC[C@@H]1Nc1cccc(-c2cnc3ccc(C(F)(F)F)nn23)n1 [Compound 79]

>  <reportedValue>
0.66

$$$$
>  <compound>
Cn1cc(-c2ccc3ncc(-c4cccc(NC5CC6(CNC6)C5)n4)n3n2)cn1 [Compound 35]

>  <reportedValue>
0.45

$$$$
>  <compound>
Cn1cc(-c2ccc3ncc(-c4cccc(NC5CCC6(CNC6)C5)n4)n3n2)cn1 (stereo not shown) [Compound 49]

>  <reportedValue>
0.08

$$$$
>  <compound>
F[C@H]1CNC[C@@H]1Nc1cccc(-c2cnc3ccc(N4CCOCC4)nn23)n1 [Compound 95]

>  <reportedValue>
0.07

$$$$
>  <compound>
F[C@H]1CNC[C@@H]1Nc1cccc(-c2cnc3ccc(-c4cnn(C5CC5)c4)nn23)n1 [Compound 3]

>  <reportedValue>
-0.35

$$$$

I need log10 IC50 for every entry listed below, if you could help.
1. COc1cc2ncc(-c3cccc(N[C@H]4CNC[C@@H]4F)n3)n2nc1C(C)(O)C(F)(F)F (single isomer, unassigned; fast-eluting) [Compound 133]
2. COc1cc2ncc(-c3nc(N[C@@H]4CCCNC4)c(F)cc3F)n2nc1C1CC1 [Compound 106]
3. COc1cc2ncc(-c3cccc(N[C@H]4CNCC[C@@H]4F)n3)n2nc1C1CC1 [Compound 102]
4. Cn1cc(-c2ccc3ncc(-c4cccc(N[C@H]5CNC[C@@H]5F)n4)n3n2)cn1 [Compound 1]
5. COc1cc2ncc(-c3cccc(N[C@H]4CNC[C@@H]4F)n3)n2nc1-c1cnn(C)c1 [Compound 121]

Solution:
0.52
-1.82
-0.96
-0.48
-0.11

---

Provide the reported IC50 of each item.
Tested on: MOLM14 F691L cells
Test: MOLM14 F691L cell viability assay (Cell Titer Glo)
Assay type: cell-based
Conditions: Homo sapiens, MOLM-14, 48 h
Protocol: Both cell lines have activated FLT3 receptors, each of which carry additional resistance mutations in the kinase domain (D835Y and F691L, respectively). MOLM14 D835Y and MOLM14 F691L cells were grown in RPMI-1640 media supplemented with 20% fetal bovine serum (FBS). […] Luminescence readings were taken using a Viewlux imager (PerkinElmer) with a 2 second exposure time per plate.
Give bare numbers, in nM.

Below are worked cases with known answers.
>  <structureAsSmiles>
COc1cc2ncc(-c3cccc(N[C@H]4CNCC[C@@H]4F)n3)n2nc1C(F)F

>  <testSystem>
MOLM14 F691L cells

>  <reportedValue>
770

$$$$
>  <structureAsSmiles>
COc1cc2ncc(-c3nc(N[C@H]4CNC[C@@H]4F)c(F)cc3F)n2nc1C1CC1

>  <testSystem>
MOLM14 F691L cells

>  <reportedValue>
137

$$$$
>  <structureAsSmiles>
COc1cc2ncc(-c3cc(F)cc(N[C@H]4CNCC[C@@H]4F)n3)n2nc1C1CC1

>  <testSystem>
MOLM14 F691L cells

>  <reportedValue>
1220

$$$$
>  <structureAsSmiles>
COc1cc2ncc(-c3nc(N[C@H]4CNCC[C@@H]4F)c(F)cc3F)n2nc1C(C)(C)O

>  <testSystem>
MOLM14 F691L cells

>  <reportedValue>
386

$$$$

I need IC50 for every entry listed below, if you could help.
1. COc1cc2ncc(-c3cccc(N[C@H]4CNC[C@@H]4F)n3)n2nc1-c1cnn(C)c1
2. COc1cc2ncc(-c3nc(N[C@H]4CNC[C@@H]4F)c(F)cc3F)n2nc1C(C)(C)O
3. COc1cc2ncc(-c3cccc(N[C@H]4CNCC[C@@H]4F)n3)n2nc1-c1cn[nH]c1
4. COc1cc2ncc(-c3cccc(N[C@@H]4CCCNC4)n3)n2nc1C(F)F
5. COc1cc2ncc(-c3nc(N[C@@H]4CCCNC4)c(F)cc3F)n2nc1C(C)(C)O
6. COc1cc2ncc(-c3cccc(N[C@H]4CNC[C@@H]4F)n3)n2nc1C(F)F

Solution:
1: 1370; 2: 1540; 3: 275; 4: 1370; 5: 6120; 6: 1090
